- SUBJECT_OF_TEST: B-Raf kinase (SEQ. ID NO: 2) (Homo sapiens (Human), UniProt P15056)
- Sequence (P15056 416-766): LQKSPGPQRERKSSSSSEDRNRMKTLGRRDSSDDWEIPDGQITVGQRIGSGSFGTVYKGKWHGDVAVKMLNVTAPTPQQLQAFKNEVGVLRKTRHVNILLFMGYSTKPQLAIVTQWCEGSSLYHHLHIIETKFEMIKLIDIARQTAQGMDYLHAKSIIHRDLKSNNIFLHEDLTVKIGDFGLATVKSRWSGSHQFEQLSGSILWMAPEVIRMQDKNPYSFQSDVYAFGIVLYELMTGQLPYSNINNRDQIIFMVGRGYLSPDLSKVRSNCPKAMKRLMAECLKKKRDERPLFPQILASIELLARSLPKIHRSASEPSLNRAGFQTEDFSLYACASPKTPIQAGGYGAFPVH
- MEASUREMENT_DESCRIPTION: Biochemical Assay for B-Raf (1)
- EXPERIMENTAL_PARAMETERS: Table J, assay version (1); read-out: BRAF (1) IC50
pIC50: −log10 of the molar value.
OBSERVATION_TYPE: pIC50

Consider the following illustrative entries.
Cc1cc(F)c(NC(=O)c2ccnc(C(C)(C)F)c2)cc1-c1cncc(-c2ccnc(NC(=O)C3CC3)c2)n1 | ≥ 7.00
Cc1ccc(NC(=O)c2cc(CN(C)C)cc(C(F)(F)F)c2)cc1-c1cncc(-c2ccnc(NC(=O)C3CC3)c2)n1 | ≥ 7.00
CNC(=O)c1cc(-c2cnnc(-c3cc(NC(=O)c4cn(C(C)(C)C)nn4)ccc3C)c2)ccn1 | 6.30 to 7.00
CNC(=O)c1cc(-c2cc(-c3cc(NC(=O)c4ccnc(C(F)(F)F)c4)ccc3C)cc(=O)n2C)ccn1 | 5.00 to 6.00
Cc1ccc(NC(=O)c2ccnc(C(C)(C)C#N)c2)cc1-c1ccnc(-c2ccnc(C(=O)NC3CC3)c2)c1 | 6.30 to 7.00

Ask: Looking for the measured pIC50 of `COC(=O)Nc1cc(-c2cc(-c3cc(NC(=O)c4ccnc(C(F)F)c4)cnc3C)ccn2)ccn1` , can you help?
Reply: ≥ 7.00

Ask: Looking for the measured pIC50 of `CNC(=O)c1cc(-c2cc(-c3cc(NC(=O)c4cccc(C(F)(F)F)c4)cnc3C)ccn2)ccn1` , can you help?
Reply: 6.30 to 7.00

Ask: Looking for the measured pIC50 of `CNC(=O)c1cc(-c2cccc(-c3cc(NC(=O)c4ccnc(C(C)(C)C#N)c4)ccc3C)c2)cnn1` , can you help?
Reply: 6.30 to 7.00

Ask: Looking for the measured pIC50 of `COCCNc1cc(-c2cncc(-c3cc(NC(=O)c4ccnc(C(C)(C)C#N)c4)ccc3C)n2)ccn1` , can you help?
Reply: 6.30 to 7.00

Ask: Looking for the measured pIC50 of Cc1ncc(NC(=O)C2CCOC(C)(C)C2)cc1-c1cccc(-c2cc(NC(=O)C3CC3)ncn2)c1 (centres unmarked) , can you help?
Reply: 6.30 to 7.00

Ask: Looking for the measured pIC50 of `CC(=O)Nc1cc(-c2nccc(-c3cc(NC(=O)c4ccnc(C5CC5)c4)ccc3C)n2)ccn1` , can you help?
Reply: ≥ 7.00

Ask: Looking for the measured pIC50 of `Cc1ccc(NC(=O)c2ccnc(C(C)(C)C#N)c2)cc1-c1cc(-c2ccnc(C(=O)NC3CC3)c2)cnn1` , can you help?
Reply: 5.00 to 6.00
